Values from ChEMBL document CHEMBL4673406

- METHOD DESCRIPTION: Oral bioavailability in rat at 2 mg/kg
- Type: ADME, organism-based
- TEST SETTINGS: in vivo
PROPERTY: bioavailability (%)
Answers are plain numbers, in %.

*Q* # get_value(readout='bioavailability', item= `C[C@@H](NC(=O)c1ccc(Cl)cc1)[C@H]1CC[C@@H](c2ccnc3ccc(F)cc32)CC1` )
*A* 127

* * *

- METHOD DESCRIPTION: Oral bioavailability in cynomolgus monkey at 5 mg/kg
- Assay type: ADME, organism-based, Macaca fascicularis
- TEST SETTINGS: in vivo
PROPERTY: bioavailability

*Q* Return reported bioavailability; argument: `C[C@@H](NC(=O)c1ccc(Cl)cc1)[C@H]1CC[C@@H](c2ccnc3ccc(F)cc32)CC1`
*A* 42%

* * *

- METHOD DESCRIPTION: Aqueous solubility of the compound at pH 6.5
- Assay type: physicochemical
- TEST SETTINGS: buffer
PROPERTY: solubility

*Q* Name the reported solubility value associated with the molecule `COc1ccc(C(=O)N[C@H](C)[C@H]2CC[C@@H](c3ccnc4ccc(F)cc43)CC2)cc1N1CCOCC1`
*A* < 1 µg/mL

* * *

- METHOD DESCRIPTION: Oral bioavailability in dog at 5 mg/kg
- Type: ADME, organism-based, Canis lupus familiaris
- TEST SETTINGS: in vivo
PROPERTY: bioavailability (%)
Numbers only, in %.

*Q* Quick one: bioavailability for `C[C@@H](NC(=O)c1ccc(Cl)cc1)[C@H]1CC[C@@H](c2ccnc3ccc(F)cc32)CC1` ?
*A* 39

* * *

- METHOD DESCRIPTION: Inhibition of calcium channel (unknown origin) by patch clamp method
- Parameters: species or system Homo sapiens
PROPERTY: IC50

*Q* Entry under review: `C[C@@H](NC(=O)c1ccc(Cl)cc1)[C@H]1CC[C@@H](c2ccnc3ccc(F)cc32)CC1` . Reported IC50?
*A* > 25 µM

* * *

- TESTED SYSTEM: Cytochrome P450 (Homo sapiens, UniProt P04798+P05177+P05181+P08684+P10632+P10635+P11509+P11712+P13584+P20813+P20815+P20853+P24462+P24903+P33260+P33261+P51589+P78329+P98187+Q02928+Q08477+Q16678+Q16696+Q5TCH4+Q6VVX0+Q7Z449+Q8TAV3+Q96SQ9+Q9HB55)
- METHOD DESCRIPTION: Metabolic stability in human hepatocytes assessed as CYP450-mediated compound metabolism by measuring half life
- Format: ADME, cell-based, Hepatocyte
PROPERTY: half-life (min)
Give bare numbers, in min.

*Q* // returns reported half-life for input `C[C@@H](NC(=O)c1ccc(Cl)cc1)[C@H]1CC[C@@H](c2ccnc3ccc(F)cc32)CC1`
*A* 14

* * *

- METHOD DESCRIPTION: Metabolic stability in mouse hepatocytes assessed as CYP450-mediated compound metabolism by measuring half life
- Format: ADME, cell-based, Hepatocyte
PROPERTY: half-life (min)
Answers are plain numbers, in min.

*Q* Could you share which half-life value was measured for `C[C@@H](NC(=O)c1ccc(Cl)cc1)[C@H]1CC[C@@H](c2ccnc3ccc(F)cc32)CC1` ?
*A* 4

* * *

- TESTED SYSTEM: Indoleamine 2,3-dioxygenase 1 (Homo sapiens, UniProt P14902)
- Sequence (P14902 whole entry): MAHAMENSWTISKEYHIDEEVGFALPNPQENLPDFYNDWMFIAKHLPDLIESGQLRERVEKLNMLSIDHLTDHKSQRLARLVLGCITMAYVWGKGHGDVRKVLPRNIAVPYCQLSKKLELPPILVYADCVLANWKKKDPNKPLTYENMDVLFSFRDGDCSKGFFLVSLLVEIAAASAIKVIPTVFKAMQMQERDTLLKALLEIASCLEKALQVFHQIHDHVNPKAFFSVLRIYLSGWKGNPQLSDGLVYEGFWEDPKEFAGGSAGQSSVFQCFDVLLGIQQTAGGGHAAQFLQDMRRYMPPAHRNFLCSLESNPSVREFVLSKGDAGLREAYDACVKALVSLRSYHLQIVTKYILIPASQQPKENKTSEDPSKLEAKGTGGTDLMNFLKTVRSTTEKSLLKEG
- METHOD DESCRIPTION: Inhibition of IDO1 in IFNgamma-stimulated human HeLa cells preincubated for 2 hrs followed by IFNgamma stimulation and measured after 18 hrs by
PROPERTY: IC50 (nM)
Give bare numbers, in nM.

| STRUCTURE SMILES | READING UNIT | RESULT |
| --- | --- | --- |
| C[C@@H](CNc1ccc(Cl)cc1)[C@H]1CC[C@@H](c2ccnc3ccc(F)cc32)CC1 | nM | 7 |
| C[C@@H](NC(=O)C1CCCCC1)[C@H]1CC[C@@H](c2ccnc3ccc(F)cc32)CC1 | nM | 12 |
| C[C@@H](NC(=O)Cc1ccc(Cl)cc1)[C@H]1CC[C@@H](c2ccnc3ccc(F)cc32)CC1 | nM | 125 |
| C[C@H](NC(=O)[C@H](C)[C@H]1CC[C@@H](c2ccnc3ccc(F)cc32)CC1)c1ccc(Cl)cc1 | nM | 67 |
| C[C@@H](NC(=O)c1cccc(Cl)c1)[C@H]1CC[C@@H](c2ccnc3ccc(F)cc32)CC1 | nM | 7 |

Give IC50 for each of the items listed below.
1. C[C@@H](NC(=O)Nc1ccc(Cl)cc1)[C@H]1CC[C@@H](c2ccnc3ccc(F)cc32)CC1
2. COc1ccc(C(=O)N[C@H](C)[C@H]2CC[C@@H](c3ccnc4ccc(F)cc43)CC2)cc1N1CCOCC1
3. C[C@@H](c1nc2ccc(Cl)cc2[nH]1)[C@H]1CC[C@@H](c2ccnc3ccc(F)cc32)CC1

*A*
[20, 7, 4]

* * *

- METHOD DESCRIPTION: AUC in cynomolgus monkey at 1 mg/kg, iv
- Format: ADME, organism-based, Macaca fascicularis
- Parameters: dose 1 mg/kg
- TEST SETTINGS: in vivo
PROPERTY: AUC
Hey, just the number and the unit after it is fine.

*Q* Quick one: AUC for `C[C@@H](NC(=O)c1ccc(Cl)cc1)[C@H]1CC[C@@H](c2ccnc3ccc(F)cc32)CC1` ?
*A* 3.4 µM·h

* * *

- TESTED SYSTEM: CYP450 (Homo sapiens, UniProt P04798+P05177+P05181+P08684+P10632+P10635+P11509+P11712+P13584+P20813+P20815+P20853+P24462+P24903+P33260+P33261+P51589+P78329+P98187+Q02928+Q08477+Q16678+Q16696+Q5TCH4+Q6VVX0+Q7Z449+Q8TAV3+Q96SQ9+Q9HB55)
- METHOD DESCRIPTION: Inhibition of human CYP450
- Assay type: ADME, protein assay
PROPERTY: IC50

*Q* Looking for the measured IC50 of `C[C@@H](NC(=O)c1ccc(Cl)cc1)[C@H]1CC[C@@H](c2ccnc3ccc(F)cc32)CC1` , can you help?
*A* > 15 µM

* * *

- TESTED SYSTEM: UniProt:P11712
PROPERTY: pIC50
Numbers only, as −log10 of the molar value.

*Q* Record `C[C@@H](NC(=O)c1ccc(Cl)cc1)[C@H]1CC[C@@H](c2ccnc3ccc(F)cc32)CC1` : what is its pIC50 with UniProt:P11712?
*A* 6.13

* * *

- TESTED SYSTEM: Neuronal acetylcholine receptor subunit alpha-7 (Homo sapiens)
- Sequence (P36544 whole entry): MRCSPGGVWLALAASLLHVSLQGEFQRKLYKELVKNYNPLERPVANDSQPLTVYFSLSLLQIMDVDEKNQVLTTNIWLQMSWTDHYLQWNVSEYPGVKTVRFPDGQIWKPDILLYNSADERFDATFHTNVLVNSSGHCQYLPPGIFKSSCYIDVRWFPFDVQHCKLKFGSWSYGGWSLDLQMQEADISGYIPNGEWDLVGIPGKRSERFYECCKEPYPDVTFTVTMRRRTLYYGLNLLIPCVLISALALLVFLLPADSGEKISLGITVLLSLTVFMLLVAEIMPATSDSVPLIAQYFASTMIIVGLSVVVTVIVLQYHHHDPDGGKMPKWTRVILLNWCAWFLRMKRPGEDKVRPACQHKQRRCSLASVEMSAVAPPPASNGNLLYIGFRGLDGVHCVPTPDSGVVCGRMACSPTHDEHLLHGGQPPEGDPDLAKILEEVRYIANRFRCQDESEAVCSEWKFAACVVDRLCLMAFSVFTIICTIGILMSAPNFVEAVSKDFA
- METHOD DESCRIPTION: Inhibition of alpha7 nAChR (unknown origin)
pIC50: −log10 of the molar value.
PROPERTY: pIC50

*Q* # pIC50 lookup, item `C[C@@H](NC(=O)c1ccc(Cl)cc1)[C@H]1CC[C@@H](c2ccnc3ccc(F)cc32)CC1`
*A* < 5.22

* * *

- METHOD DESCRIPTION: Solubility of the compound at pH 6.5 to 7.4
- Format: physicochemical
- TEST SETTINGS: buffer
PROPERTY: solubility

*Q* For the compound shown here, `C[C@@H](NC(=O)c1ccc(-c2ccccc2)cc1)[C@H]1CC[C@@H](c2ccnc3ccc(F)cc32)CC1` , give the reported solubility.
*A* < 1 µg/mL

* * *

- METHOD DESCRIPTION: Metabolic stability in dog hepatocytes assessed as UGT-mediated compound glucuronidation by measuring half life
- Assay type: ADME, cell-based, Canis lupus familiaris, Hepatocyte
PROPERTY: half-life

*Q* Which measured half-life value corresponds to `C[C@@H](NC(=O)c1ccc(Cl)cc1)[C@H]1CC[C@@H](c2ccnc3ccc(F)cc32)CC1` ?
*A* 33 min

* * *

- METHOD DESCRIPTION: AUC in dog at 5 mg/kg, po
- Format: ADME, organism-based, Canis lupus familiaris
- Parameters: dose 5 mg/kg
- TEST SETTINGS: in vivo
PROPERTY: AUC (µM·h)
Answers are plain numbers, in µM·h.

*Q* // query AUC value for entry `C[C@@H](NC(=O)c1ccc(Cl)cc1)[C@H]1CC[C@@H](c2ccnc3ccc(F)cc32)CC1`
*A* 17.4

* * *

- METHOD DESCRIPTION: Metabolic stability in rat hepatocytes assessed as CYP450-mediated compound metabolism by measuring half life
- Assay type: ADME, cell-based, Hepatocyte
PROPERTY: half-life
Show the value, then the unit it is measured in.

*Q* Request the reported half-life associated with `C[C@@H](NC(=O)c1ccc(Cl)cc1)[C@H]1CC[C@@H](c2ccnc3ccc(F)cc32)CC1`
*A* 10 min

* * *

- TESTED SYSTEM: Indoleamine 2,3-dioxygenase 1 (Mus musculus, UniProt P28776)
- Sequence (P28776 whole entry): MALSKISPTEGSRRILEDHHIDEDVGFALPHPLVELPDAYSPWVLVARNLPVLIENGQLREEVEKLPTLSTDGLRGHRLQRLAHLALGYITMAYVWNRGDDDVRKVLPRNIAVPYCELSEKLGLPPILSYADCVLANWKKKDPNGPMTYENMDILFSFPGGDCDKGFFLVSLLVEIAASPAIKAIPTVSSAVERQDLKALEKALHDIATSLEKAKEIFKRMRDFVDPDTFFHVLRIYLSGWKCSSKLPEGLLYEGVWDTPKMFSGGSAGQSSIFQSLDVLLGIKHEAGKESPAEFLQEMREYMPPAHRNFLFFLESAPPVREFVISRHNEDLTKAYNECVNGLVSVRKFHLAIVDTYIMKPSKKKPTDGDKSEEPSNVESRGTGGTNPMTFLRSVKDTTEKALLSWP
- METHOD DESCRIPTION: Inhibition of IDO1 in IFNgamma-stimulated mouse M109 cells preincubated for 2 hrs followed by IFNgamma stimulation and measured after 18 hrs by
Exercise: state measured IC50 for each of the compounds provided.
Numbers only, in nM.

Consider the worked cases shown below.
| STRUCTURE SMILES | TESTED SYSTEM | IC50 / nM |
| --- | --- | --- |
| C[C@H](NC(=O)[C@H](C)[C@H]1CC[C@@H](c2ccnc3ccc(F)cc32)CC1)c1ccc(Cl)cc1 | Indoleamine 2,3-dioxygenase 1 (Mus musculus, UniProt P28776) | 870 |
| C[C@@H](CNC(=O)c1ccc(Cl)cc1)[C@H]1CC[C@@H](c2ccnc3ccc(F)cc32)CC1 | Indoleamine 2,3-dioxygenase 1 (Mus musculus, UniProt P28776) | 772 |
| C[C@@H](NC(=O)Nc1ccc(Cl)cc1)[C@H]1CC[C@@H](c2ccnc3ccc(F)cc32)CC1 | Indoleamine 2,3-dioxygenase 1 (Mus musculus, UniProt P28776) | 67 |
| C[C@@H](NC(=O)c1ccccc1Cl)[C@H]1CC[C@@H](c2ccnc3ccc(F)cc32)CC1 | Indoleamine 2,3-dioxygenase 1 (Mus musculus, UniProt P28776) | 215 |
| C[C@@H](NC(=O)C12CCC(Cl)(CC1)CC2)[C@H]1CC[C@@H](c2ccnc3ccc(F)cc32)CC1 | Indoleamine 2,3-dioxygenase 1 (Mus musculus, UniProt P28776) | 56 |

For every listed record, write down its IC50.
1. COc1ncc(NC(=O)[C@H](C)[C@H]2CC[C@@H](c3ccnc4ccc(F)cc43)CC2)cn1
2. C[C@@H](NC(=O)c1ccc(-c2ccccc2)cc1)[C@H]1CC[C@@H](c2ccnc3ccc(F)cc32)CC1
3. C[C@@H](NC(=O)Cc1ccc(Cl)cc1)[C@H]1CC[C@@H](c2ccnc3ccc(F)cc32)CC1
4. C[C@@H](NC(=O)c1cccc(Cl)c1)[C@H]1CC[C@@H](c2ccnc3ccc(F)cc32)CC1
5. C[C@@H](C(=O)NC1CCCCC1)[C@H]1CC[C@@H](c2ccnc3ccc(F)cc32)CC1
6. C[C@@H](NC(=O)c1ccc(Cl)cc1)[C@H]1CC[C@@H](c2ccnc3ccc(F)cc32)CC1
7. C[C@@H](c1nc2ccc(Cl)cc2[nH]1)[C@H]1CC[C@@H](c2ccnc3ccc(F)cc32)CC1

*A*
1. 92
2. 3
3. 651
4. 48
5. 287
6. 2
7. 12

Look at each compound and report its IC50.
1. COc1ccc(C(=O)N[C@H](C)[C@H]2CC[C@@H](c3ccnc4ccc(F)cc43)CC2)cc1N1CCOCC1
2. C[C@@H](NC(=O)C1CCCCC1)[C@H]1CC[C@@H](c2ccnc3ccc(F)cc32)CC1
3. C[C@@H](CNc1ccc(Cl)cc1)[C@H]1CC[C@@H](c2ccnc3ccc(F)cc32)CC1

*A*
1. 20
2. 86
3. 62
